# System: Staphylococcus aureus
# test: Bactericidal activity against Staphylococcus aureus ATCC 29213 after 24 hrs
# Assay type: functional
# testConditions: ATCC 29213, 24 h
Measured MBC accompanies every entry in the list below.
propertyName: MBC (µg/mL)

1. N#Cc1ccc2[nH]cc(C(c3ccc(F)cc3)c3c[nH]c4ccc(C#N)cc34)c2c1 :: 1
2. Oc1cccc(C(c2c[nH]c3ccc(Br)cc23)c2c[nH]c3ccc(Br)cc23)c1 :: 1
3. O=[N+]([O-])c1ccc2[nH]cc(C(c3ccc(O)cc3)c3c[nH]c4ccc([N+](=O)[O-])cc34)c2c1 :: 1
